target.or.test.system: UniProt P56658
Sequence (P56658 whole entry): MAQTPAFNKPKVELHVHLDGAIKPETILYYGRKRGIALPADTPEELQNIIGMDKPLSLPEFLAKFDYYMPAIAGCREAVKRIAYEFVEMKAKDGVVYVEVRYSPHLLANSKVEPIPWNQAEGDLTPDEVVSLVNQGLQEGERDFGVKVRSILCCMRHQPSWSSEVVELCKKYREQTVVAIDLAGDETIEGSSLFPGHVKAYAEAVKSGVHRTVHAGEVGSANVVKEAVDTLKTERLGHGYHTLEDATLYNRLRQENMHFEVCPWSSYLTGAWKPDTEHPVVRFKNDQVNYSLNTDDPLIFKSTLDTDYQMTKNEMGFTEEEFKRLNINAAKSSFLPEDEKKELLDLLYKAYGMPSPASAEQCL
measured.quantity: Ki (nM)
The answer is to be given in nM; state only the numeric part.

Entry under test: `CC1=NC[C@@H](O)c2ncn([C@H]3C[C@H](O)[C@@H](CO)O3)c2N1` . Its Ki was 16

----------
target.or.test.system: Adenosine deaminase (Homo sapiens, UniProt P00813)
Sequence (P00813 whole entry): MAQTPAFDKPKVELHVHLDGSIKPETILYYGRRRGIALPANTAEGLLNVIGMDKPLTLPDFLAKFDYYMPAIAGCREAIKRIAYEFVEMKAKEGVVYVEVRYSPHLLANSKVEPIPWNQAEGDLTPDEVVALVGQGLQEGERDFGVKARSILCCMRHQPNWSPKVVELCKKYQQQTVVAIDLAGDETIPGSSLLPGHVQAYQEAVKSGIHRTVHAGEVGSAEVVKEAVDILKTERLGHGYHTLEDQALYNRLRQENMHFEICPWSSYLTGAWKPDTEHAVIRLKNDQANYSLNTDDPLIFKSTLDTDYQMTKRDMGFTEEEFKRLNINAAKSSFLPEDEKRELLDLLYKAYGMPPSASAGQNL
measured.quantity: pKi
By convention, pKi is the negative base-10 log of a molar concentration.

Entry under test: OC[C@H]1O[C@@H](n2cnc3c2N=CNC[C@H]3O)[C@H](O)[C@@H]1O [COFORMYCIN] . Its pKi was 11.00
